Listed here are molecules together with their documented GI50.
# Tested on: UACC-62 melanoma
# assay procedure: NCI tumour cell line growth inhibition, 48 h

Would you please look over these solved cases?
>>> result("COc1ccc(C2=NN(C(=O)COc3ccc(Cl)cc3)C(O)(c3cc(F)c(Cl)cc3Cl)C2)cc1OC (stereo not given)")
"5.6 µM"
>>> result("O=C1CCCCCCCC/C=C/CCC(c2ccco2)O1 (stereo not given)")
"26.2 µM"
>>> result("Nc1nc(Nc2ccc3c(c2)CC[C@@H](N2CCCC2)CC3)nn1-c1cc2c(nn1)-c1ccccc1CCC2")
"1.89 µM"
>>> result("CC(=O)Nc1nc(SCc2ccccc2)c2ncn(C(C)=O)c2n1")
"61.8 µM"

# ---- query molecule ----
Lab note: measured GI50 of CC(=O)C1CC2(c3ccc(C)cc3)C(c3ccc(C)cc3)=C(c3ccc(C)cc3)C1(c1ccc(C)cc1)S2=O (stereo not given) was > 100 µM

====

# Tested on: U251 CNS
# assay procedure: NCI tumour cell line growth inhibition, 48 h
quantity: TGI

Would you please look over these solved cases?
>>> result("C=CC[C@H]1C[C@@]2(C)OC[C@H](C(C)C)N2C1=O")
"> 100 µM"
>>> result("N#CC1=C(N)OC2=C(COc3ccc(F)cc32)C1c1ccc(Cl)cc1 (stereo not given)")
"> 100 µM"

Value sought: TGI, system U251 CNS, item COc1ccc(OC)c(C(=O)/C=C/c2cc(O)c(O)cc2F)c1 . Result: 12.3 µM

Value sought: TGI, system U251 CNS, item OCCN1CN(c2nc(N3CN(CCO)C3)nc(N3CN(CCO)C3)n2)C1 . Result: 53 µM

Value sought: TGI, system U251 CNS, item N#Cc1ccc(/C=N/NC(=O)CSCC(=O)N/N=C/c2ccc(C#N)cc2)cc1 . Result: > 100 µM

Value sought: TGI, system U251 CNS, item CN(NC(=O)CC(=O)NN(C)C(=S)c1ccccc1)C(=S)c1ccccc1 . Result: > 100 µM

Value sought: TGI, system U251 CNS, item CCC(C)NC(=S)N/N=C(\C)c1ccccn1 (stereo not given) . Result: > 100 µM

Value sought: TGI, system U251 CNS, item OCC(O)C(O)C(O)C1SC(c2ccccc2)=NN1c1ccccc1 (stereo not given) . Result: > 100 µM

Value sought: TGI, system U251 CNS, item COC(=O)C1=COC(C)C2C[n+]3ccc4c([nH]c5ccccc54)c3CC12 (stereo not given) . Result: > 100 µM

Value sought: TGI, system U251 CNS, item O=c1[nH]c(=S)c2cc3c(=S)[nH]c(=O)n(CCC(c4ccccc4)(c4ccccc4)c4ccccc4)c3nc2n1CCC(c1ccccc1)(c1ccccc1)c1ccccc1 . Result: > 100 µM

====

# Test system: MCF7 breast
# assay procedure: NCI tumour cell line growth inhibition, 48 h; in the data active means GI50 below about 0.43 µM; inactive means the rest
// one of Y for active, N for inactive, no free text

// known answers, use as guide
>>> answer_label("Cc1cc(C)c(O)c(CNCCCCCCNCc2cc(C)cc(C)c2O)c1")
"N"
>>> answer_label("C/C=C(\\C)C(=O)N[C@H]1[C@@H](OC(C)=O)C[C@]2(C)C3CC[C@@]4(C)C(CC[C@@H]4C(C)N(C)C)C3CCC2[C@H]1O (stereo partly specified)")
"N"
>>> answer_label("CC(=O)Nc1nc(SCc2ccccc2)c2ncn(C(C)=O)c2n1")
"N"

Record request — test call for c1ccc2[nH]c(SSc3nc4ncncc4[nH]3)nc2c1 Y

Record request — test call for COc1c(C)c2c(c(O)c1C/C=C(\C)CCC(=O)OCCN1CCOCC1)C(=O)OC2 Y

Record request — test call for O=C(c1cc(F)c(Cl)cc1Cl)N1N=C(c2ccccc2)CC1(O)c1ccccc1 (stereo unspecified) N

Record request — test call for COc1ccc(/C=C\c2cc(OC)c(OC)c(OC)c2)cc1OC(=O)C(N)CCC(=O)O (stereo unspecified) Y

Record request — test call for COc1cc(Cl)cc(-c2nn(C(=O)NCCN3CCN(C)CC3)cc2-c2ccncc2)c1 N
